Below is a list of entries, each paired with its recorded abundance fitness value.
B1: Cold shock protein CspB, residues 1 to 66; numbered along this chain, P41016 (parent)
chain: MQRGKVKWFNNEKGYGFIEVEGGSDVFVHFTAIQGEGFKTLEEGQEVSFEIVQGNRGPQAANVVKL

- Variants of: B1
- protocol_text: abundance fitness (aPCA) (normalised: wild type 0, dead -1); higher = more abundant; growth selection in yeast, the domain comes from the species named
- test_parameters: Bacillus caldolyticus
Write no unit; give the number alone.

These recorded examples may help you get a feel for the data.
INSERT INTO results (mutation_id, assay_result) VALUES
  ('D25K', -0.093),
  ('G23N', -0.066),
  ('F27R', -0.176),
  ('G44V', -0.344),
  ('K7T', -0.052),
  ('H29K', -0.197),
  ('G14H', -0.047),
  ('A32T', -0.105),
  ('Q34W', -0.049),
  ('L41G', -0.355);

Fill in: abundance fitness of D25E is ___
-0.082

Given the entry I33G , report its measured abundance fitness.
-0.41

# input variant: N11E ; wanted: its abundance fitness
-0.027
